// data source = patent US9932309B2

# ASSAYED TARGET: mTGR5 (Mus musculus, UniProt Q80SS6)
# Sequence (Q80SS6 whole entry): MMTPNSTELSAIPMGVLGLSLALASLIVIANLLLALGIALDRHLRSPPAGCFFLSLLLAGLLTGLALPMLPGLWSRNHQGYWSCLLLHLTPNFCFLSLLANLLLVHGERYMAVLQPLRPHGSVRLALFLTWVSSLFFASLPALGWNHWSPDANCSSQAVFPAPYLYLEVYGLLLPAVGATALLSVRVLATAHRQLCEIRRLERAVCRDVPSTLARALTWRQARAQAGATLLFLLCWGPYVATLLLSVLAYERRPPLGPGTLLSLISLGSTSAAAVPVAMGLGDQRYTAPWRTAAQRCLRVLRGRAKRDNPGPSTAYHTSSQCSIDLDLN
# TEST DETAILS: TGR5/CRE Luciferase Assay (mTGR5)
# MEASUREMENT CONDITIONS: HEK 293 cells co-transfected with pCMV AC6-TGR5m and pCRE TA-Luciferase; overnight incubation
pEC50: −log10 of the molar value.
ASSAY READOUT: pEC50

* COCCN1C(=O)CC(c2ccc(Cl)cc2)C(C(=O)OCc2c(C)cc(C)cc2C)=C1C (centres unmarked) | 6.70
* CC1=C(C(=O)OCc2ccccc2)C(c2ccc(Cl)cc2)CC(=O)N1CC1CC1 (centres unmarked) | 6.52
* C#CCN1C(=O)CC(c2ccc(Cl)cc2)C(C(=O)OCc2ccccc2)=C1C (centres unmarked) | 6.05
* CC1=C(C(=O)OCc2ccc(OCCS(=O)(=O)O)cc2)[C@H](c2ccc(Cl)cc2)CC(=O)N1C[C@H]1CCCO1.N | 7.00
* CC1=C(C(=O)OCc2ccccc2)C(c2ccc(Cl)cc2)CC(=O)N1 (centres unmarked) | 5.35
* COCCN1C(=O)CC(c2ccc(Cl)cc2)C(C(=O)N2CCCc3ccccc32)=C1C (centres unmarked) | 4.91
* COCCOc1ccc(COC(=O)C2=C(C)N(CCOC)C(=O)CC2c2ccc(Cl)cc2)cc1 (centres unmarked) | 7.00
* CC1=C(C(=O)OCc2ccccc2)C(c2ccc(Br)cc2)CC(=O)N1 (centres unmarked) | 5.77

---

# maps each entry to its hTGR5 % trans
# ASSAYED TARGET: hTGR5 (Homo sapiens, UniProt Q8TDU6)
# Construct: expressed in transfected cells; host or cells: HEK293 cells, transiently co-transfected with the pCRE TA-Luciferase reporter
# Sequence (Q8TDU6 whole entry): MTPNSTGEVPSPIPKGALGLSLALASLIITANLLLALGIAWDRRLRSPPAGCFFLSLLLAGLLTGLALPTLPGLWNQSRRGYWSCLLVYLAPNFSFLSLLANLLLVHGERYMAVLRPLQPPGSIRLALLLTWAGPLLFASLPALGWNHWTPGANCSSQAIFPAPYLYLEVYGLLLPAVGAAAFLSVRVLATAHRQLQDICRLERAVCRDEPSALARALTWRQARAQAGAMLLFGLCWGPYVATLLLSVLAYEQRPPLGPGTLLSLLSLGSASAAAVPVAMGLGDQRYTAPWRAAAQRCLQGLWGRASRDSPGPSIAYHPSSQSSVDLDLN
# TEST DETAILS: TGR5/CRE Luciferase Assay (hTGR5)
# Format: cell-based
# MEASUREMENT CONDITIONS: percentage of the 10 μM LCA value; HEK 293 cells transfected with hTGR5
ASSAY READOUT: hTGR5 % trans (%)

* COCCOc1ccc(COC(=O)C2=C(C)N(CCOC)C(=O)CC2c2ccc(Cl)cc2)cc1 (centres unmarked) [Example 119] | 85
* CC1=C(C(=O)OCc2c(F)cccc2F)C(c2ccc(Cl)cc2)CC(=O)N1C (centres unmarked) [Example 82] | 74
* COc1ccccc1COC(=O)C1=C(C)N(Cc2ccco2)C(=O)CC1c1ccc(Cl)cc1 (centres unmarked) [Compound 66] | 62
* COCCN1C(=O)CC(c2ccc(Cl)cc2)C(C(=O)OCc2ccc(OCCC[N+](C)(C)C)cc2)=C1C.[I-] (centres unmarked) [Example 117] | 74
* CC1=C(C(=O)OCc2ccc(OCCS(=O)(=O)O)cc2)[C@H](c2ccc(Cl)cc2)CC(=O)N1C[C@H]1CCCO1.N [Example 144] | 95
* CC1=C(C(=O)OCc2ccc(C(F)(F)F)cc2)C(c2ccc(Cl)cc2)CC(=O)N1C (centres unmarked) [Example 80] | 60
* CC1=C(C(=O)OC2CCc3ccccc32)[C@H](c2ccc(Cl)cc2)CC(=O)N1C[C@H]1CCCO1 (mixture of isomers) [Example 137] | 70
* COCCN1C=C(C(=O)OCc2ccccc2)C(c2ccc(Cl)cc2)CC1=O (centres unmarked) [Compound 32] | 77
* CC1=C(C(=O)OCc2ccccc2)C(c2ccc(Cl)cc2)CC(=O)N1CC(N)=O (centres unmarked) [Compound 60] | 42
* COCCCN1C(=O)CC(c2ccc(Cl)cc2)C(C(=O)OCc2ccccc2OC)=C1C (centres unmarked) [Compound 71] | 94
* CC1=C(C(=O)OCc2ccccc2)C(c2ccc(Cl)cc2)CC(=O)N1CC#N (centres unmarked) [Compound 63] | 50
* COc1ccc(COC(=O)C2=C(C)N(C)C(=O)CC2c2ccc(Cl)cc2)cc1OC (centres unmarked) [Example 83] | 69
* CN1C=C(C(=O)N(C)Cc2ccccc2)C(c2ccc(Cl)cc2)CC1=O (centres unmarked) [Compound 33a] | 37
* CC1=C(C(=O)OCc2ccc(OCCCS(=O)(=O)O)cc2)[C@H](c2ccc(Cl)nc2)CC(=O)N1C[C@H]1CCCO1.N [Example 166] | 103
* CC1=C(C(=O)OCc2ccccc2)C(c2ccccc2)CC(=O)N1 (centres unmarked) [Compound 14] | 30
* COCCN1C(=O)CC(c2ccc(Cl)cc2Cl)C(C(=O)OCc2ccccc2OC)=C1C (centres unmarked) [Example 129] | 89
* COCCN1C=C(C(=O)NCc2ccccc2)C(c2ccc(Cl)cc2)CC1=O (centres unmarked) [Compound 33] | 42
* C=C(C)CN1C(=O)CC(c2ccc(Cl)cc2)C(C(=O)OCc2ccccc2)=C1C (centres unmarked) [Compound 39] | 82
* CC1=C(C(=O)OCc2ccccc2)C(c2ccc(Cl)cc2)CC(=O)N1CCS(C)(=O)=O (centres unmarked) [Compound 62] | 69
* CC1=C(C(=O)OCc2ccc(OCCCS(=O)(=O)O)cc2)[C@H](c2ccc(Cl)cc2)CC(=O)N1C[C@H]1CCCO1.N [Example 168] | 106
* COCCN1C(=O)CC(c2ccc(Cl)cc2)C(C(=O)NCc2ccccc2)=C1C (centres unmarked) [Example 75] | 34
* CC1=C(C(=O)OCc2ccc(C)cc2)C(c2ccc(Cl)cc2)CC(=O)N1C (centres unmarked) [Example 79] | 80
* COCCN1C(=O)CC(c2ccc(Cl)cc2)C(C(=O)OCc2ccc(C(=O)OC)cc2)=C1C (centres unmarked) [Example 97] | 76
* CC1=C(C(=O)OCc2ccccc2)C(c2ccc(Cl)cc2)CC(=O)N1CC(=O)OC(C)(C)C (centres unmarked) [Compound 58] | 50
* COCCN1C(=O)CC(c2ccc(Cl)cc2)C(C(=O)OCc2cccc(OC)c2)=C1C (centres unmarked) [Example 103] | 85
* CC1=C(C(=O)OCc2ccc(F)cc2Cl)C(c2ccc(Cl)cc2)CC(=O)N1C (centres unmarked) [Example 81] | 86
* COCCN1C(=O)CC(c2ccc(C#N)cc2)C(C(=O)OCc2ccccc2OC)=C1C (centres unmarked) [Example 125] | 86
* CC1=C(C(=O)OCc2cccnc2)[C@H](c2ccc(Cl)cc2)CC(=O)N1C[C@H]1CCCO1 (racemic) [Example 146] | 78
* CC1=C(C(=O)OCc2ccccc2)C(c2ccc(Cl)cc2)CC(=O)N1Cc1nc(C)no1 (centres unmarked) [Compound 59] | 21
* CC1=C(C(=O)OCc2ccccc2)C(c2ccc(Cl)cc2)CC(=O)N1CCNC(=O)OC(C)(C)C (centres unmarked) [Compound 52] | 18
* COCCN1C(=O)CC(c2ccc(Cl)cc2)C(C(=O)OCc2ccccc2Cl)=C1C (centres unmarked) [Example 87] | 67
* COCCN1C(=O)CC(c2ccc(Cl)cc2)C(C(=O)N2CCCc3ccccc32)=C1C (centres unmarked) [Example 77] | 71

---

# ASSAYED TARGET: mTGR5 (Mus musculus, UniProt Q80SS6)
# TEST DETAILS: TGR5/CRE Luciferase Assay (mTGR5)
# MEASUREMENT CONDITIONS: HEK 293 cells co-transfected with pCMV AC6-TGR5m and pCRE TA-Luciferase; overnight incubation
ASSAY READOUT: EC50

- COCCN1C=C(C(=O)NCc2ccccc2)C(c2ccc(Cl)cc2)CC1=O (centres unmarked): 11000 nM
- COCCN1C(=O)CC(c2ccc(Cl)cc2)C(C(=O)OCc2ccc(C)cc2)=C1C (centres unmarked): 400 nM
- COCCN1C(=O)CC(c2ccc(Cl)cc2)C(C(=O)OCc2ccc(C#N)cc2)=C1C (centres unmarked): 300 nM
- COCCN1C(=O)CC(c2ccc(Cl)cc2)C(C(=O)OCc2ccccc2)=C1C (centres unmarked): 600 nM
- COCCN1C(=O)CC(c2ccc(Cl)cc2)C(C(=O)OCc2ccc(F)cc2)=C1C (centres unmarked): 400 nM
- COc1ccccc1COC(=O)C1=C(C)N(CC2CC2)C(=O)CC1c1ccc(Cl)cc1 (centres unmarked): 80 nM
- CC1=C(C(=O)OCc2c(F)cccc2F)C(c2ccc(Cl)cc2)CC(=O)N1C (centres unmarked): 1500 nM
- CC1=C(C(=O)OCc2ccc(C)cc2)C(c2ccc(Cl)cc2)CC(=O)N1C (centres unmarked): 700 nM

---

# ASSAYED TARGET: mTGR5 (Mus musculus, UniProt Q80SS6)
# Construct: expressed in transfected cells; host or cells: HEK293 cells, transiently co-transfected with the pCRE TA-Luciferase reporter
# TEST DETAILS: TGR5/CRE Luciferase Assay (mTGR5)
# Assay type: cell-based
# MEASUREMENT CONDITIONS: percentage of the 10 μM LCA value; HEK 293 cells transfected with mTGR5
# maps each entry to its mTGR5 % trans
ASSAY READOUT: mTGR5 % trans

* COCCN1C(=O)CC(c2ccc(Cl)cc2)C(C(=O)OCc2cccc(F)c2)=C1C (stereo not shown) | 82%
* CCCN1C(=O)CC(c2ccc(Cl)cc2)C(C(=O)OCc2ccccc2)=C1C (stereo not shown) | 76%
* CCOC(=O)CN1C(=O)CC(c2ccc(Cl)cc2)C(C(=O)OCc2ccccc2OC)=C1C (stereo not shown) | 104%
* COc1ccccc1COC(=O)C1=C(C)N(C[C@@H]2CCCO2)C(=O)C[C@@H]1c1ccc(Cl)nc1 | 86%
